Give measured IC50 for each item. Keep answers brief.
# target.entity: human skin chymase (Homo sapiens, UniProt P23946)
# Construct: using human skin chymase (Cortex Biochem); purchased Cortex Biochem
# assay.summary: Enzyme-catalyzed hydrolysis assay (chymase inhibition)
# Format: biochemical
# details: 10 nM enzyme, 0.7 mM Suc-Ala-Ala-Pro-Phe-pNa, pH 8.0, 37° C., 30 minutes
# Experimental: Enzyme-catalyzed hydrolysis rates were measured spectro-photometrically using human skin chymase (Cortex Biochem), a chromogenic substrate (Suc-Ala-Ala-Pro-Phe-pNa) (Bachem) in aqueous buffer (450 mM Tris, 1800 mM NaCl, pH 8.0), and a microplate reader (Molecular Devices). […] Percent inhibition was calculated by comparing the initial reaction slopes of the samples without inhibitor to those with inhibitor. IC50 values were determined using a four parameter fit logistics model. […]
Reply with just the number (in µM).

Exercise: What value of IC50 has been reported for the following compound? CP(=O)(O)C(C(=O)N/C=C/c1cc(Cl)cc(Cl)c1)c1csc2ccc(Cl)cc12 (stereo not shown)
Solution: 0.0031

Exercise: And O=C(Nc1cc2ccccc2cc1C(=O)N1CCC(CCc2ccccc2)C1)C(c1cccc2ccccc12)P(=O)(O)O (stereo not shown) ?
Solution: 0.51

Exercise: And O=C(Nc1ccc2ncsc2c1)C(c1csc2ccc(Cl)cc12)P(=O)(O)O (stereo not shown) ?
Solution: 0.17

Exercise: And O=P(O)(O)C(C(=S)Nc1ccc2ccccc2c1)c1csc2ccc(Cl)cc12 (stereo not shown) ?
Solution: 0.371

====

Give measured IC50 for each item. Keep answers brief.
# target.entity: human skin chymase (Homo sapiens, UniProt P23946)
# Construct: using human skin chymase (Cortex Biochem); purchased Cortex Biochem
# Sequence (P23946 22-247): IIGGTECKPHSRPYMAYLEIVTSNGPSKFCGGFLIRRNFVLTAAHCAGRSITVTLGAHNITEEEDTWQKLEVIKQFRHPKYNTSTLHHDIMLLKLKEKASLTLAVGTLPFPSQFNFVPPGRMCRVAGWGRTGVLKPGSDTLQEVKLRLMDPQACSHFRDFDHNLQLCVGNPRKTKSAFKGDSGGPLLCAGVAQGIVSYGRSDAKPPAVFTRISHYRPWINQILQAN
# assay.summary: Enzyme-catalyzed hydrolysis assay (chymase inhibition)
# Format: biochemical
# details: 10 nM enzyme, 0.7 mM Suc-Ala-Ala-Pro-Phe-pNa, pH 8.0, 37° C., 30 minutes
Reply with just the number (in µM).

Exercise: What value of IC50 has been reported for the following compound? CP(=O)(O)C(C(=O)Nc1ccc2ccccc2c1)c1c(C(=O)NCc2ccccc2)sc2ccccc12 (stereo not shown)
Solution: 7

Exercise: And Cn1cc(C(C(=O)Nc2ccc3ccccc3c2)P(=O)(O)O)c2cc(C#N)ccc21 (stereo not shown) ?
Solution: 0.84

Exercise: And O=C(O)C(C(=O)Nc1ccc2ccccc2c1)c1csc2ccc(Cl)cc12 (stereo not shown) ?
Solution: 1.75

Exercise: And O=C(Nc1ccc2ccccc2c1)C(C1=CS(=O)(=O)c2ccc(Cl)cc21)P(=O)(O)O (stereo not shown) ?
Solution: 1.9

====

# target.entity: human skin chymase (Homo sapiens, UniProt P23946)
# Construct: using human skin chymase (Cortex Biochem); purchased Cortex Biochem
# Sequence (P23946 22-247): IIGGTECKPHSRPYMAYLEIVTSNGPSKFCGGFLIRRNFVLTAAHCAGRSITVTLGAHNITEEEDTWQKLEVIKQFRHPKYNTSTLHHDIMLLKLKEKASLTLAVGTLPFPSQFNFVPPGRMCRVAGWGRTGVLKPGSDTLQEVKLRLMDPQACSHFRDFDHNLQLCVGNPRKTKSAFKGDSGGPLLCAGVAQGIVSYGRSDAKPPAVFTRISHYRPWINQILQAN
# assay.summary: Enzyme-catalyzed hydrolysis assay (chymase inhibition)
# Type: biochemical
# details: 10 nM enzyme, 0.7 mM Suc-Ala-Ala-Pro-Phe-pNa, pH 8.0, 37° C., 30 minutes
recorded.endpoint: IC50 (µM)
Reply with just the number (in µM).

Exercise: What value of IC50 has been reported for the following compound? O=C(Nc1cc2ccccc2cc1C(=O)N1CCC(S(=O)(=O)c2ccccc2)C1)C(c1cccc2ccccc12)P(=O)(O)O (stereo not shown) [Cpd 103]
Solution: 3.63

Exercise: And O=C(Nc1cc2ccccc2cc1OCC=Cc1ccccc1)C(c1cccc2ccccc12)P(=O)(O)O (stereo not shown) [Cpd 121] ?
Solution: 5.9

Exercise: And O=C(Nc1cc2ccccc2cc1C(=O)N1CCC(n2c(=O)[nH]c3ccc(Cl)cc32)CC1)C(c1cccc2ccccc12)P(=O)(O)O (stereo not shown) [Cpd 60] ?
Solution: 0.663

Exercise: And O=C(Nc1ccccc1)OCc1cc2ccccc2cc1NC(=O)C(c1cccc2ccccc12)P(=O)(O)O (stereo not shown) [Cpd 94] ?
Solution: 2.75

Exercise: And CP(=O)(O)C(C(=O)N/C=C/c1ccc(F)cc1F)c1csc2ccc(Cl)cc12 (stereo not shown) [Cpd 171] ?
Solution: 0.025

Exercise: And CP(=O)(O)C(C(=O)N/C=C/c1ccc(F)cc1)c1csc2ccc(Cl)cc12 (stereo not shown) [Cpd 24] ?
Solution: 0.1

Exercise: And CN(Cc1cc2ccccc2cc1NC(=O)C(c1cccc2ccccc12)P(=O)(O)O)C1CCN(C(=O)c2ccc3ccccc3c2)CC1 (stereo not shown) [Cpd 102] ?
Solution: 3.45

====

# target.entity: human skin chymase (Homo sapiens)
# Construct: using human skin chymase (Cortex Biochem); purchased Cortex Biochem
# assay.summary: Enzyme-catalyzed hydrolysis assay (chymase inhibition)
# Format: biochemical
# details: 10 nM enzyme, 0.7 mM Suc-Ala-Ala-Pro-Phe-pNa, pH 8.0, 37° C., 30 minutes
recorded.endpoint: log10 of IC50 (log10 of the value in µM)
The base-10 logarithm of IC50, taken with IC50 in µM, is what appears here.

Exercise: What value of log10 of IC50 has been reported for the following compound? O=C(Nc1ccc2c(c1)Cc1ccccc1-2)C(c1cccc2ccccc12)P(=O)(O)O (centres unmarked)
Solution: 0.63

Exercise: And COCCCP(=O)(O)C(C(=O)Nc1ccc2ccccc2c1)c1csc2ccc(Cl)cc12 (centres unmarked) ?
Solution: -0.66

Exercise: And CN(Cc1ccccc1)C(=O)c1cc2ccccc2cc1NC(=O)C(c1cccc2ccccc12)P(=O)(O)O (centres unmarked) ?
Solution: 0.66

Exercise: And COc1ccc(C2CCN(C(=O)c3sc4ccccc4c3C(C(=O)Nc3ccc4ccccc4c3)P(C)(=O)O)CC2)cc1 (centres unmarked) ?
Solution: -0.63

Exercise: And CP(=O)(O)C(C(=O)N/C=C/c1ccccn1)c1csc2ccc(Cl)cc12 (centres unmarked) ?
Solution: -1.04

Exercise: And CP(=O)(O)C(C(=O)N/C=C/c1cccc(F)c1)c1csc2ccc(Cl)cc12 (centres unmarked) ?
Solution: -1.28

Exercise: And CP(=O)(O)C(C(=O)N/C=C/c1ccccc1Br)c1csc2ccc(Cl)cc12 (centres unmarked) ?
Solution: -1.00

Exercise: And O=C(Nc1cc2ccccc2cc1C(=O)N1CCC(c2ccccc2)C1)C(c1cccc2ccccc12)P(=O)(O)O (centres unmarked) ?
Solution: 0.31

Exercise: And Cc1ccc2scc(C(C(=O)Nc3ccc4ccccc4c3)P(=O)(O)O)c2c1 (centres unmarked) ?
Solution: -1.72

Exercise: And O=C(Nc1cc2ccccc2cc1C(=O)N1CCC(c2nc3ccccc3s2)CC1)C(c1cccc2ccccc12)P(=O)(O)O (centres unmarked) ?
Solution: 0.68

Exercise: And CP(=O)(O)C(C(=O)N/C=C/c1ccccc1F)c1csc2ccc(Cl)cc12 (centres unmarked) ?
Solution: -1.10

Exercise: And Nc1nc2ccc(NC(=O)C(c3csc4ccc(Cl)cc34)P(=O)(O)O)cc2s1 (centres unmarked) ?
Solution: -0.03

Exercise: And CN(Cc1ccccc1)Cc1cc2ccccc2cc1NC(=O)C(c1cccc2ccccc12)P(=O)(O)O (centres unmarked) ?
Solution: 0.98

Exercise: And Nc1cc2ccccc2cc1NC(=O)C(c1cccc2ccccc12)P(=O)(O)O (centres unmarked) ?
Solution: 0.90

Exercise: And O=C(COc1cc2ccccc2cc1NC(=O)C(c1cccc2ccccc12)P(=O)(O)O)NCCCc1ccccc1 (centres unmarked) ?
Solution: 0.87

Exercise: And COc1ccc(C=CNC(=O)C(c2csc3ccc(Cl)cc23)P(=O)(O)O)cc1OC (centres unmarked) ?
Solution: -0.37

Exercise: And O=C(Nc1cc2ccccc2cn1)C(c1cccc2ccccc12)P(=O)(O)O (centres unmarked) ?
Solution: 0.94

====

# target.entity: human skin chymase (Homo sapiens)
# Construct: using human skin chymase (Cortex Biochem); purchased Cortex Biochem
# Sequence (P23946 22-247): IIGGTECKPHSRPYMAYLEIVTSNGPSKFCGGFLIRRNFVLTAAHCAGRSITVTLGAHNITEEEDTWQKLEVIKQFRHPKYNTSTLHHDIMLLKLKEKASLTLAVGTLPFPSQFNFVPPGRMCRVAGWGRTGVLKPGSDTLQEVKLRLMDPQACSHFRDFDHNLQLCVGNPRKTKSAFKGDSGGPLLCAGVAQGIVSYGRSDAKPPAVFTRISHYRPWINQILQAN
# assay.summary: Enzyme-catalyzed hydrolysis assay (chymase inhibition)
# Type: biochemical
# details: 10 nM enzyme, 0.7 mM Suc-Ala-Ala-Pro-Phe-pNa, pH 8.0, 37° C., 30 minutes
Give measured IC50 for each item. Keep answers brief.
Reply with just the number (in µM).

Exercise: What value of IC50 has been reported for the following compound? O=C(Nc1ccc2ccccc2c1)C(c1cccc2c1ccn2-c1ccccc1)P(=O)(O)O (centres unmarked)
Solution: 7.3

Exercise: And O=C(Nc1ccc2ccccc2c1)C(c1csc2ccc(Cl)cc12)P(=O)(O)CCCc1ccc2c(c1)OCO2 (centres unmarked) ?
Solution: 0.31

Exercise: And CP(=O)(O)C(C(=O)Nc1ccc2ccccc2c1)c1c(C(=O)N2CCC(c3ccccc3)CC2)sc2ccccc12 (centres unmarked) ?
Solution: 0.21

Exercise: And O=C(Nc1ccc2ccccc2c1)C(CO)c1csc2ccc(Cl)cc12 (centres unmarked) ?
Solution: 8.63

Exercise: And O=C(Nc1ccc2ccccc2c1)C(c1nnn[nH]1)c1csc2ccc(Cl)cc12 (centres unmarked) ?
Solution: 2.04

Exercise: And O=C(Nc1ccc2ccccc2c1)C(c1cn(CC=Cc2ccccc2)c2ccccc12)P(=O)(O)O (centres unmarked) ?
Solution: 0.13

Exercise: And O=C(Nc1ccc2ccccc2c1)OCc1cc2ccccc2cc1NC(=O)C(c1cccc2ccccc12)P(=O)(O)O (centres unmarked) ?
Solution: 4.1

Exercise: And O=C(Nc1cc2ccccc2cc1C(=O)N1CCC(c2c[nH]c3ccccc23)CC1)C(c1cccc2ccccc12)P(=O)(O)O (centres unmarked) ?
Solution: 1.72

The measurements presented in this section are drawn from patent US7459444B2.
